B1: glmS ribozyme (parent)
chain: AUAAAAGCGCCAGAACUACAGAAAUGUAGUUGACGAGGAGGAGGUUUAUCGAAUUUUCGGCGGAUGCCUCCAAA

- Variants of: B1
- protocol-notes: self-cleavage kobs at 10000 uM GlcN6P; higher = faster cleavage; RNA array
- experimental-conditions: with glucosamine-6-phosphate
Variants at the floor of the assay were thinned out.
Could you label it 1 if measured self-cleavage kobs at 10000 uM GlcN6P is 0.0009 s⁻¹ or higher, and 0 otherwise?

Look over these answered cases.
> print(dat)
                variant.key  classification
1                 C50U G51A               0
2                  G9C G43A               0
3  A36C G44U U54G G66A C71A               0
4   G9U G13A A36U G38A U65G               0
5            U49G C61U C71A               0

// inclusive: self-cleavage kobs at 10000 uM GlcN6P at least 0.0009 s⁻¹? input: U55A U56C 1

// inclusive: self-cleavage kobs at 10000 uM GlcN6P at least 0.0009 s⁻¹? input: U45C U65G C67A 0

// inclusive: self-cleavage kobs at 10000 uM GlcN6P at least 0.0009 s⁻¹? input: A14C C16A 0

// inclusive: self-cleavage kobs at 10000 uM GlcN6P at least 0.0009 s⁻¹? input: A12U U54A 1

// inclusive: self-cleavage kobs at 10000 uM GlcN6P at least 0.0009 s⁻¹? input: G35U G62C 0

// inclusive: self-cleavage kobs at 10000 uM GlcN6P at least 0.0009 s⁻¹? input: U45G U55A 1

// inclusive: self-cleavage kobs at 10000 uM GlcN6P at least 0.0009 s⁻¹? input: G43C C68U 0

// inclusive: self-cleavage kobs at 10000 uM GlcN6P at least 0.0009 s⁻¹? input: A14G A53U U55G 1

// inclusive: self-cleavage kobs at 10000 uM GlcN6P at least 0.0009 s⁻¹? input: A12G G40U 0

// inclusive: self-cleavage kobs at 10000 uM GlcN6P at least 0.0009 s⁻¹? input: A12U U47G 1

// inclusive: self-cleavage kobs at 10000 uM GlcN6P at least 0.0009 s⁻¹? input: A39U U65A 1

// inclusive: self-cleavage kobs at 10000 uM GlcN6P at least 0.0009 s⁻¹? input: A14G U49G 1

// inclusive: self-cleavage kobs at 10000 uM GlcN6P at least 0.0009 s⁻¹? input: G40U G62C 0

// inclusive: self-cleavage kobs at 10000 uM GlcN6P at least 0.0009 s⁻¹? input: G13U G41A 0

// inclusive: self-cleavage kobs at 10000 uM GlcN6P at least 0.0009 s⁻¹? input: C34A A52U 0

// inclusive: self-cleavage kobs at 10000 uM GlcN6P at least 0.0009 s⁻¹? input: G44A U56C G63A 0

// inclusive: self-cleavage kobs at 10000 uM GlcN6P at least 0.0009 s⁻¹? input: A14C A33U A36U G60U G62C 0

// inclusive: self-cleavage kobs at 10000 uM GlcN6P at least 0.0009 s⁻¹? input: U31G U45G 1

// inclusive: self-cleavage kobs at 10000 uM GlcN6P at least 0.0009 s⁻¹? input: U47G C68A 0

// inclusive: self-cleavage kobs at 10000 uM GlcN6P at least 0.0009 s⁻¹? input: G13U C50G C70U 0

// inclusive: self-cleavage kobs at 10000 uM GlcN6P at least 0.0009 s⁻¹? input: G7C C34U 0

// inclusive: self-cleavage kobs at 10000 uM GlcN6P at least 0.0009 s⁻¹? input: U45G C67A 1
